Below, each entry is listed with its recorded GI50.
System: UO-31
Assay: NCI tumour cell line growth inhibition, 48 h
Active and inactive are the calls of the source. Cut-off read from the data, not from the text of the source: active = GI50 up to about 1.1 µM and inactive = higher.

[
  {
    "compound": "CC1=CC(=O)N(n2c(C)n[nH]c2=O)C1=O",
    "experimental result": "> 100 µM (inactive)"
  }
]

// recorded GI50 for CC(=O)N1N=C(N)CC1=O : > 100 µM (inactive)

// recorded GI50 for Nc1nc(N)c2nc(CNc3ccc(C(=O)O)cc3)[nH]c2n1 : > 100 µM (inactive)

// recorded GI50 for CCOC(=O)/C(=C\c1ccc(OCc2ccccc2)c(OC)c1)C(=O)c1ccccc1 : 18.1 µM (inactive)

// recorded GI50 for C=CCOc1ccc(C2c3c(n[nH]c3O)CC(O)(OCC)C2C(=O)OCC)cc1OC (configuration not stated) : > 100 µM (inactive)

// recorded GI50 for [O-][Cl+3]([O-])([O-])O.c1ccc(/N=c2\nc(N3CCOCC3)ss2)cc1 : 28.6 µM (inactive)

// recorded GI50 for COc1cccc(-c2nc(O)c3ccccc3n2)c1 : 22.4 µM (inactive)
